PROCEDURE DETAILS: Permeability from basolateral to apical side in human Caco2 cells assessed as drug recovery at 2 uM after 60 mins in absence of CES inhibitor BNPP by LC-MS method
Assay type: ADME, cell-based
TEST CONDITIONS: Caco-2, read-out: Drug recovery
MEASURED PROPERTY: recovery at 1 h, 2 µM (%)
Numeric answer only, unit % assumed.

Ask: recovery at 1 h, 2 µM for `C=C/C(C)=C\C[C@]1(C)[C@H](C)C[C@H](O)[C@@]23C(=C[C@H](OC(=O)CCC)C[C@@H]12)[C@@H](OC(=O)CCC)O[C@H]3OC(C)=O` ?
Result: 46.5
